- Target Or System: T1, cynomolgus monkey BCMA (cynomolgus monkey, UniProt A0A2K5UD97 1-53)
- T1 construct: Soluble analyte in SPR; construct not described; also called cyBCMA; Cyno BCMA
- T1 sequence (A0A2K5UD97 entry or part of it): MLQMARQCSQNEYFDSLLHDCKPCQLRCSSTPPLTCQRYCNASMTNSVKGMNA
- Assay Text: SPR, IgG immobilised, 37 C
So I've got a bunch of binders here, and I need their kon values.
Give bare numbers, in M⁻¹ s⁻¹.

L3.PY/L1.PS/H2.YQ (antibody, V domains shown, IgG) VH: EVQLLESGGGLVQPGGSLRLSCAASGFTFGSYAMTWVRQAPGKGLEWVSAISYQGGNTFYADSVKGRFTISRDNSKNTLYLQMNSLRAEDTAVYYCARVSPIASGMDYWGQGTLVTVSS VL: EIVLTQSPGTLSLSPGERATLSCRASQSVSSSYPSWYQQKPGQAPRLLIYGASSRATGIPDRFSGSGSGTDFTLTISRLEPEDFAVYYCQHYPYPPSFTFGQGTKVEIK :: 2e+06

# ---- query binder ----
For L3.PY/P6E01 (antibody, V domains shown, IgG) VH: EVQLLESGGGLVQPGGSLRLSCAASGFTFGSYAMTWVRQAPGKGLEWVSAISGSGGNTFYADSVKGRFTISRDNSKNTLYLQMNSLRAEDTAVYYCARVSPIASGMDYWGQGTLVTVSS VL: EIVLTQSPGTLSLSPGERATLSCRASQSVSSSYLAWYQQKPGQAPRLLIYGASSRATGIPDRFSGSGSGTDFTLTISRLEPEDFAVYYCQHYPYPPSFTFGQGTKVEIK , what is its reported kon?
2.2e+06
